# reported CC50 at 6 days; entries follow
assay: in vitro; conditions: human
No end group written: not given here.
Reported Endpoint: CC50 at 6 days

# Substance, Assay Result
measured = [
    ("GRFKRIRKKLKKLFKKIS-NH2 [BMAP-18I6L10]", "2.79 µM"),
    ("GRFKRFRKKFKKLFKKIS-NH2 [BMAP-18]", "8.45 µM"),
    ("LLGDLLRKSKEKIGKEFKRIVQR-NH2 [LL-23]", "> 35.4 µM"),
]

* * *

tested on: CEM-SS cells; experiment: Cytotoxicity in the CPE assay (XTT, 50% reduction in cell viability); details: read-out: TC50; Table 2; CEM-S cells
No end group written: not given here.

# Seq, CC50
measured = [
    ("GFLDIIEKIAKSW [Peptide B7]", "> 65.8 µM"),
    ("GLWEKIDKFASII [Peptide B2]", "> 65.8 µM"),
    ("GLFDIIKKIAESW [Peptide B1]", "37 µM"),
    ("GIWSDLAEIIKKF [Peptide B6]", "> 65.8 µM"),
    ("GIFDKLAKEISIW [Peptide B5]", "> 65.8 µM"),
    ("GWLKKIESIIDAF [Peptide B8]", "> 65.8 µM"),
]
